Listed here are molecules together with their documented tissue uptake at 0.75 h.
protocol description: in vivo
settings: female, NMRI nude (nu/nu), mouse, total radioactivity, Uptake (%ID/g) kidney
Value expressed in %ID/g; do not type the unit.

Consider the worked cases shown below.
>  <molecule>
CN[C@@H](CCCNC(N)=NC(=O)NCCCCNC(=O)CN1CCN(CC(=O)O)CCN(CC(=O)O)CCN(CC(=O)O)CC1)C(=O)N[C@@H](CCCNC(=N)N)C(=O)N1CCC[C@H]1C(=O)N[C@@H](Cc1ccc(O)cc1)C(=O)N[C@H](C(=O)N[C@@H](CC(C)C)C(=O)O)C(C)(C)C [[^68Ga]21, metal not drawn]

>  <tissue uptake at 0.75 h (%ID/g)>
6

$$$$
>  <molecule>
CN[C@@H](CCCNC(N)=NC(=O)NCCOCCOCCNC(=O)[C@@H](Cc1ccc(-c2ccc(F)cc2)cc1)NC(=O)CN1CCN(CC(=O)O)CCN(CC(=O)O)CCN(CC(=O)O)CC1)C(=O)N[C@@H](CCCNC(=N)N)C(=O)N1CCC[C@H]1C(=O)N[C@@H](Cc1ccc(O)cc1)C(=O)N[C@H](C(=O)N[C@@H](CC(C)C)C(=O)O)C(C)(C)C [[^68Ga]37, metal not drawn]

>  <tissue uptake at 0.75 h (%ID/g)>
7.6

$$$$
>  <molecule>
CC[C@H](C)[C@H](NC(=O)[C@@H](NC(=O)[C@@H]1CCCN1C(=O)[C@H](CCCNC(=N)N)NC(=O)[C@H](CCCNC(N)=NC(=O)NCCCCNC(=O)CN1CCN(CC(=O)O)CCN(CC(=O)O)CCN(CC(=O)O)CC1)NC)C(C)(C)c1ccc(O)cc1)C(=O)N[C@@H](CC(C)C)C(=O)O [[^68Ga]56, metal not drawn]

>  <tissue uptake at 0.75 h (%ID/g)>
55

$$$$

Let us examine a further case.
Data request, read-out tissue uptake at 0.75 h, for CN[C@@H](CCCNC(N)=NC(=O)NCCOCCOCCNC(=O)[C@@H](Cc1ccc(-c2ccc(F)cc2)cc1)NC(=O)CCCCCNC(=O)CN1CCN(CC(=O)O)CCN(CC(=O)O)CCN(CC(=O)O)CC1)C(=O)N[C@@H](CCCNC(=N)N)C(=O)N1CCC[C@H]1C(=O)N[C@@H](Cc1ccc(O)cc1)C(=O)N[C@H](C(=O)N[C@@H](CC(C)C)C(=O)O)C(C)(C)C [[^68Ga]33, metal not drawn]
10
